Give measured Kd for each item. Keep answers brief.
Target: PSMA (Homo sapiens, UniProt Q04609)
Construct: host or cells: LNCaP human prostate carcinoma cells
Sequence (Q04609 whole entry): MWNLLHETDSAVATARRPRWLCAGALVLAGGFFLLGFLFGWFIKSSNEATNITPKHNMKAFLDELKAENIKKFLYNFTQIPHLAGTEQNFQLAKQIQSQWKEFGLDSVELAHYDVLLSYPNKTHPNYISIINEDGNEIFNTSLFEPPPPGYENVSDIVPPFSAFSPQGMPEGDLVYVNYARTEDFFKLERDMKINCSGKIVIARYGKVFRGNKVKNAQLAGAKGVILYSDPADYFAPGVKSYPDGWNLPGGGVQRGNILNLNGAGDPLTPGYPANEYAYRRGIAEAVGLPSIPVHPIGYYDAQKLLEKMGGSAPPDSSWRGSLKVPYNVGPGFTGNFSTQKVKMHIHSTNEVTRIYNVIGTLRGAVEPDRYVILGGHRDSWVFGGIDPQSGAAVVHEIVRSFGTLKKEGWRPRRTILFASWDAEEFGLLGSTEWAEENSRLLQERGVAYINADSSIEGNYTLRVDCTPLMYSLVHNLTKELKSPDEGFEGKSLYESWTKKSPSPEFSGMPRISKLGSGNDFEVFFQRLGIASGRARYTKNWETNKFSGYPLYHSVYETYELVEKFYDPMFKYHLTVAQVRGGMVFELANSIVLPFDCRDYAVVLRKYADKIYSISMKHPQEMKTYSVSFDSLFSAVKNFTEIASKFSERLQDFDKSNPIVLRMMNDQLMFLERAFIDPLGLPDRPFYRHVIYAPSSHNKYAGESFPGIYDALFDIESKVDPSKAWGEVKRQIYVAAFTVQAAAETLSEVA
Experiment: Direct binding affinity on LNCaP cells (saturation)
Conditions: [99mTc]TcO complex of the listed compound, saturation 0.3-40 nM, 1 h 37° C., mean ± SEM, read-out: Kd [nM] of [99mTc]TcO-complexes
Form entry: value (nM) — number only.

*Q* Look up Kd for this molecule: CC(C)(S)CNCCN(CCCCC(=O)N[C@@H](CCC(=O)O)C(=O)N[C@@H](CCC(=O)O)C(=O)N[C@H](CCCCNC(=O)CCCCCCC(=O)NCCCC[C@H](NC(=O)N[C@@H](CCC(=O)O)C(=O)O)C(=O)O)C(=O)O)CC(C)(C)S [Compound 5]
*A* 7.2

*Q* Look up Kd for this molecule: CC(C)(S)CNCCN(CCCCC(=O)N[C@H](Cc1ccc(O)c(I)c1)C(=O)N[C@H](Cc1ccccc1)C(=O)N[C@H](CCCCNC(=O)CCCCCCC(=O)NCCCC[C@H](NC(=O)N[C@@H](CCC(=O)O)C(=O)O)C(=O)O)C(=O)O)CC(C)(C)S [Compound 4]
*A* 4.7

*Q* Look up Kd for this molecule: CC(C)(S)CNCCN(CCCCC(=O)N[C@@H](Cc1ccccc1)C(=O)N[C@@H](Cc1ccccc1)C(=O)N[C@H](CCCCNC(=O)CCCCCCC(=O)NCCCC[C@H](NC(=O)N[C@@H](CCC(=O)O)C(=O)O)C(=O)O)C(=O)O)CC(C)(C)S [Compound 2]
*A* 32.1

*Q* Look up Kd for this molecule: O=C(O)CC[C@H](NC(=O)N[C@@H](CCCCNC(=O)CCCCCCC(=O)NCCCC[C@@H](NC(=O)[C@H](CCC(=O)O)NC(=O)[C@H](CCC(=O)O)NC(=O)CCC(=O)NCCCN(CCS)CCNCCS)C(=O)O)C(=O)O)C(=O)O [Compound 6]
*A* 7.3

*Q* Look up Kd for this molecule: CC(C)(S)CNCCN(CCCCC(=O)N[C@@H](Cc1ccccc1)C(=O)N[C@@H](Cc1ccccc1)C(=O)N[C@@H](CCCCNC(=O)CCCCCCC(=O)NCCCC[C@H](NC(=O)N[C@@H](CCC(=O)O)C(=O)O)C(=O)O)C(=O)O)CC(C)(C)S [Compound 1]
*A* 15.5

*Q* Look up Kd for this molecule: CC(C)(S)CNCCN(CCCCC(=O)N[C@@H](CCCCNC(=O)CCCCCCC(=O)NCCCC[C@H](NC(=O)N[C@@H](CCC(=O)O)C(=O)O)C(=O)O)C(=O)O)CC(C)(C)S [Compound 3]
*A* 15.8
